Assay: OD615 S. cerevisiae growth inhibition, permissive medium, pilot counter-assay, permissive growth control for S. cerevisiae lifespan shortening project (AID 705)
Settings: OD615, 24 h, at 10 µM
Calls of active or inactive are those of the source.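 How the source made its calls: active means growth inhibition above 25% in both replicates, a cutoff set 3 SD above the mean; inconclusive means above 25% in only one replicate; inactive means the rest.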
Please reply with one of these outcomes: active, inactive

For orientation, consider the following solved cases.
# Compound, Label Value
data = [
    ("O=C(Cc1ccc2c(c1)OCCO2)c1c(O)cc(O)cc1O", "inactive"),
    ("CCOC(=O)c1[nH]c2ccccc2c1NC(=O)c1ccc(Br)o1", "inactive"),
    ("CCc1cc(Br)ccc1N1C(=O)C2CC=CCC2C1=O (stereo unspecified)", "inactive"),
    ("Cc1ccc(-c2nn(-c3ccccc3)cc2C(=O)N2CCOCC2)cc1", "inactive"),
    ("COc1ccc(C(=O)Nc2cc3c(cc2C#N)OCO3)cc1S(=O)(=O)N1CCN(C)CC1", "inactive"),
    ("COc1cc2c(C(=O)NCc3ccccn3)cn(C)c(=O)c2cc1OC", "inactive"),
    ("Cc1noc(C)c1CSc1nnc(-c2cc(Cl)ccc2Cl)n1N", "inactive"),
    ("COc1ccc(C(CNC(=O)C2CC(=O)N(Cc3ccc(C)cc3)C2)N(C)C)cc1 (stereo unspecified)", "inactive"),
]

(Q) What outcome does the record of this test show for O=C(O)c1ccc(NS(=O)(=O)c2cccc3cccnc23)cc1 ?
(A) inactive

(Q) What outcome does the record of this test show for COc1ccc(Nc2ccc3c(c2)=NC2(CCCCC2)[N+]=3[O-])cc1 ?
(A) inactive

(Q) What outcome does the record of this test show for COc1ccc(C(=O)/C=C/N2CCCCC2)cc1OC ?
(A) active
